Numbers sourced from patent US5093480A.

System: Candida albicans
parameter_measured: MIC (µg/mL)
One number for each entry, in µg/mL.

# count of solved cases: 3
CCCC/C=C/[N+]([O-])=NC(C)C(C)=NNC(=O)CN1CCN(C(=O)Cc2c(Cl)cccc2Cl)CC1 (stereo not shown) ... 3.1
CCCC/C=C/[N+]([O-])=NC(C)C(C)=NNC(=O)Cc1ccc(Cl)cc1 (stereo not shown) ... 1.6
CCCC/C=C/[N+]([O-])=NC(C)C(C)=NNC(=O)c1cccnc1 (stereo not shown) [Example 71, 2-nicotinoylhydrazono-2-deoxo-KA-7367A] ... 6.25

Give one value of MIC per listed compound.
1. CCCC/C=C/[N+]([O-])=NC(C)C(C)=NNC(=O)Cn1ccnc1 (stereo not shown)
2. CCCC/C=C/[N+]([O-])=NC(C)C(C)=NNC(=O)Cc1ccc(Cl)cc1Cl (stereo not shown)

Data returned:
1. 6.25
2. 1.6

* * *

Measured MIC (Candida albicans)

Answered cases to consult:
CCCC/C=C/[N+]([O-])=NC(C)C(C)=NNC(=O)Cc1cccnc1 (stereo not shown) ... 1.6 µg/mL
CCCC/C=C/[N+]([O-])=NC(C)C(C)=NOCCOCC (stereo not shown) ... 25 µg/mL
CCCC/C=C/[N+]([O-])=NC(C)C(C)=NNC(=O)Cc1c(OC)cccc1OC (stereo not shown) ... 1.6 µg/mL
CCCC/C=C/[N+]([O-])=NC(C)C(C)=NNC(C)=O (stereo not shown) [Example 43, 2-acetylhydrazono-2-deoxo-KA-7367A] ... 1.6 µg/mL

Dear reader, for each entry below, please note its MIC.
1. CCCC/C=C/[N+]([O-])=NC(C)C(C)=NNC(=O)c1ccco1 (stereo not shown)
2. CCCC/C=C/[N+]([O-])=NC(C)C(C)=NNC(N)=O (stereo not shown) [Example 34, 2-semicarbazono-2-deoxo-KA-7367A]
3. CCCC/C=C/[N+]([O-])=NC(C)C(C)=NNC(=O)c1ccncc1 (stereo not shown)

Data returned:
1.6 µg/mL
3.1 µg/mL
25 µg/mL

* * *

Record type: MIC measurement. Applies to: Candida albicans
Give bare numbers, in µg/mL.

Look over these answered cases.
CCCC/C=C/[N+]([O-])=NC(C)C(C)=NOC(=O)c1ccccc1 (centres unmarked) [Example 25, 2-benzoyloxyimino-2-deoxo-KA-7367A] ... 50
CCCC/C=C/[N+]([O-])=NC(C)C(C)=NOC(C)=O (centres unmarked) [Example 24, 2-acetoxyimino-2-deoxo-KA-7367A] ... 25
CCCC/C=C/[N+]([O-])=NC(C)C(C)=NO (centres unmarked) [Example 1, 2-hydroxyimino-2-deoxo-KA-7367A] ... 12.5
CCCC/C=C/[N+]([O-])=NC(C)C(C)=NNC(=O)Cc1c(F)cccc1F (centres unmarked) ... 0.8
CCCC/C=C/[N+]([O-])=NC(C)C(C)=NNC(=O)Cc1cccc2ccccc12 (centres unmarked) ... 3.1

Batch: MIC for all items listed.
1. CCCC/C=C/[N+]([O-])=NC(C)C(C)=NOC(=O)c1ccc(Cl)cc1 (centres unmarked)
2. CCCC/C=C/[N+]([O-])=NC(C)C(C)=NOC(C)(C)C(=O)O (centres unmarked)
3. CCCC/C=C/[N+]([O-])=NC(C)C(C)=NOCC(=O)O (centres unmarked) [Example 4, 2-carboxymethoxyimino-2-deoxo-KA-7367A]
4. CCCC/C=C/[N+]([O-])=NC(C)C(C)=NNC(N)=S (centres unmarked) [Example 35, 2-thiosemicarbazono-2-deoxo-KA-7367A]

Data returned:
[100, 12.5, 12.5, 3.1]

Provide MIC values for the following items, in order.
1. CCCC/C=C/[N+]([O-])=NC(C)C(C)=NNC(=O)CN1CCN(C(C)=O)CC1 (centres unmarked)
2. CCCC/C=C/[N+]([O-])=NC(C)C(C)=NNC(=O)C(c1ccc(Cl)cc1)c1ccccc1Cl (centres unmarked)

Data returned:
1: 3.1; 2: 0.8
